# Measured Target: rh beta tryptase (Homo sapiens)
# Sequence (Q15661 31-275): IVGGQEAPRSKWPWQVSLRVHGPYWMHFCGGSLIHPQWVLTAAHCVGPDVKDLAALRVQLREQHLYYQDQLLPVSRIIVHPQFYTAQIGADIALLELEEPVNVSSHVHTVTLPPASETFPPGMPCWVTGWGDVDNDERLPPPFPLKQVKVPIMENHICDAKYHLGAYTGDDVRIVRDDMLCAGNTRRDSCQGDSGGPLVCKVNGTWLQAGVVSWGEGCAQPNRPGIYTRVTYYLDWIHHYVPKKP
# Protocol Text: tryptase inhibition in vitro test (cleavage of N-p-tosyl-Gly-Pro-Lys-para-nitroaniline, p-nitroaniline measured at 405 nm)
# Experimental Parameters: rh beta tryptase 0.91 U/ml, substrate 0.6 mM, Tris HCl buffer with calcium and heparin, pH 7.4, 37° C., 5 minutes incubation; read-out: Tryptase-inhibiting activity
Structures can show the parent of a compound that is named as a salt.
Parameter: IC50. Scope: all listed entries.

Worked cases, IC50 given:
compound="CN(C(=O)CN1CCC(N(Cc2ccccc2)C2CCCN2)CC1)c1ccc2c(c1)nc(CCc1ccc(C(=N)N)cc1)n2C (stereo not drawn) [Example 43, dihydrochloride]" val="4 to 30 nM"
compound="CN(C(=O)CN1CCC(NCc2ccccn2)CC1)c1ccc2c(c1)nc(CCc1ccc(C(=N)N)cc1)n2C [Example 29, dihydrochloride]" val="31 to 1000 nM"

Next up:
[Q] Determine reported IC50 for CN(C(=O)CN1CCC(Nc2ccccc2Br)CC1)c1ccc2c(c1)nc(CCc1ccc(C(=N)N)cc1)n2C [Example 35, dihydrochloride] ; test system: rh beta tryptase (Homo sapiens).
[A] 0.5 to 3 nM
